assay: In vitro antihistamine activity, by activation of guinea pig cerebral cortex adenylate cyclase by histamine mediated by both H1 and H2 receptors; type: functional, tissue-based, Cavia porcellus
IC50 by entry:
Entry rule: numbers only, all in µM.

Fill blank: measured IC50 of the compound CN1CCN2c3ccccc3Cc3sccc3C2C1 (configuration not stated) is ____.
0.09

Fill blank: measured IC50 of the compound CN1CCN2c3ccccc3Cc3ccsc3C2C1 (configuration not stated) is ____.
0.28

====

IC50 by entry:
biological target: Histamine H2 receptor (Cavia porcellus); test: In vitro antihistamine activity by activation of 4-methylhistamine mediated by Histamine H2 receptor
Sequence (P47747 whole entry): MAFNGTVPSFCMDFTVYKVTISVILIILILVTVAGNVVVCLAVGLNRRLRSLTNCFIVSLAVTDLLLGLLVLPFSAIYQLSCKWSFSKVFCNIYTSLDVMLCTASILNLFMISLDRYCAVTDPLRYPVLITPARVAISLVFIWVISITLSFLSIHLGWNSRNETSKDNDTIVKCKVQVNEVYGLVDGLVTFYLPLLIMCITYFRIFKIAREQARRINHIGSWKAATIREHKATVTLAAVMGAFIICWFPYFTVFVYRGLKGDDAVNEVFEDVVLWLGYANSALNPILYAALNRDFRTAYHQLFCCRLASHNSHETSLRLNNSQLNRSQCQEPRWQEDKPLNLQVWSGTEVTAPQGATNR

Observe how each entry below is paired with its result.
Fill blank: measured IC50 of the molecule CN1CCN2c3ccccc3Cc3ccccc3C2C1.Cl (stereo not drawn) [MIANSERIN HYDROCHLORIDE] is ____.
3.8 µM

Fill blank: measured IC50 of the molecule CN1CCN2c3ccccc3Cc3sccc3C2C1 (stereo not drawn) is ____.
7.2 µM

New cases:
Fill blank: measured IC50 of the molecule CN1CCN2c3ccccc3Cc3ccsc3C2C1 (stereo not drawn) is ____.
19 µM
